Measured GI50, listed per entry.
System: human SKM-1 acute myeloid leukemia cells
Assay: SKM-1 antiproliferation cell-based assay (ATPlite)
Conditions: Homo sapiens, SKM-1, 96 h, SKM-1 antiproliferation assay, 4 days, Table C2

| COMPOUND | RECORDED RESULT |
| --- | --- |
| Cn1ccn(-c2ccc(-c3cc(F)cc(-c4ccnc(N5CCN(CCCF)CC5)c4)c3O)cc2Cl)c1=O | 0.3 to 30 nM |
| O=C1NCCCN1c1ccc(-c2cc(F)cc(-c3ccnc(N4CCNCC4)c3)c2O)cc1F | 300 to 3000 nM |
| CC(C)N1CCCC12CCN(c1cc(-c3cc(F)cc(-c4ccc(-n5ccn(C)c5=O)c(Cl)c4)c3O)ccn1)C2 (stereo not shown) | 0.3 to 30 nM |
| CN1CCN(c2ccc(-c3cc(F)cc(-c4cnc(NCCO)c(N5CCNCC5)c4)c3O)cc2Cl)C1=O | 30 to 300 nM |
| CC(=O)Nc1ccc(-c2cccc(-c3cc(OC4CC4)nc(N4CCNCC4)c3)c2O)cc1F | 300 to 3000 nM |

Measured on human SKM-1 acute myeloid leukemia cells, `CC[C@@H]1CN(c2cc(-c3cc(F)cc(-c4ccc(-n5ccn(C)c5=O)c(Cl)c4)c3O)cc3[nH]ncc23)CCN1` has a documented GI50 of 0.3 to 30 nM

Measured on human SKM-1 acute myeloid leukemia cells, `COCCN1CCN(c2cc(-c3cc(F)cc(-c4ccc(-n5ccn(C)c5=O)c(Cl)c4)c3O)ccn2)CC1` has a documented GI50 of 0.3 to 30 nM

Measured on human SKM-1 acute myeloid leukemia cells, `CN1CCN(c2ccc(-c3cc(F)cc(-c4ccnc(C5=CCNCC5)c4)c3O)cc2Cl)C1=O` has a documented GI50 of 30 to 300 nM

Measured on human SKM-1 acute myeloid leukemia cells, `CN1CCN(c2ccc(-c3cccc(-c4cccc(N5CCNCC5)c4)c3O)cc2F)C1=O` has a documented GI50 of 300 to 3000 nM

Measured on human SKM-1 acute myeloid leukemia cells, Cn1ccn(-c2ccc(-c3cc(F)cc(-c4ccnc(N5CCN6CCCCC6C5)c4)c3O)cc2Cl)c1=O (stereo not shown) has a documented GI50 of 30 to 300 nM
